Exercise: state measured percentage of cells within gate for each of the binders provided.
Target: T1, CD4 cell surface receptor molecule on peripheral blood mononuclear cells (PBMCs) (human, UniProt P01730 26-458)
T1 construct: whole, on cells; also called CD4 receptor molecule
Assay: flow cytometry, PBMCs, live CD3+ T cells; column 'Fab multimer -> D-biotin': Fab-multimer staining analysed after treatment with D-biotin
Expressed in %, but write only the number.

Using the record for 13B8.2 Fab fragment (variable domains of murine anti-CD4 antibody 13B8.2, human CH1 gamma1 and human kappa constant domains), heavy chain fused to One-STrEP-tag (Fab, V domains shown, Expressed in the E. coli periplasm; Stained as a monomer or multimerized on Strep-Tactin PE; also called CD4 wt (13B8.2); 13B8.2 wildtype (wt) Fab fragment) VH: QVQLKQSGPGLVQPSQSLSITCTVSGFSLTTFGVHWVRQSPGKGLEWLGVIWRSGITDYNVPFMSRLSITKDNSKSQVFFKLNSLQPDDTAIYYCAKNDPGTGFAYWGQGTLVTVSA VL: DIQMTQSPASLSASVGETVTFTCRASEMIYSYLAWYQQKQGKSPQLLVHDAKTLAEGVPSRFSGGGSGTQFSLKINTLQPEDFGTYYCQHHYGNPPTFGGGTKLEIKR , state its measured percentage of cells within gate.
0.041

Using the record for Mutant 13B8.2 Fab fragment with His at position 91 of the light chain mutated to Ala, heavy chain fused to One-STrEP-tag (Fab, V domains shown, also called CD4 mutant 4 (H91A); mutant 4) VH: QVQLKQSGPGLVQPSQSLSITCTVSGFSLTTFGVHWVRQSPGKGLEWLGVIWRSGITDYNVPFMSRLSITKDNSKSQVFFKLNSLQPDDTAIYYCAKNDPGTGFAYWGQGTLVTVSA VL: DIQMTQSPASLSASVGETVTFTCRASEMIYSYLAWYQQKQGKSPQLLVHDAKTLAEGVPSRFSGGGSGTQFSLKINTLQPEDFGTYYCQHAYGNPPTFGGGTKLEIKR , state its measured percentage of cells within gate.
0.017
